Test system: ventricular strips
assay: Cardiac stimulant activity in vitro, force of contraction of guinea pig ventricular strips
Type: cell-based, Guinea pigs
condition: Cavia porcellus, read-out: EC50 (50% increase in the force of contraction of the ventricular strips); concentration in bathing fluid
readout_kind: EC50 (nM)
Report the figure in nM without appending any unit label.

Summary for this compound, O=c1ccc(-c2ccc(-c3ccc(=O)[nH]n3)cc2)n[nH]1 [Example 1] : EC50 is 900

###

assay_system: PDE (Peak III)
assay: Inhibition of phosphodiesterase PDE (Peak III) from cat heart
condition: 1 μM cyclic AMP
Rule: measured IC50 below 600 nM gets yes; anything equal to or greater than 600 nM gets no.

## Task Hello, is IC50 of the following compound strictly smaller than 600 nM? "Cc1cc(=O)[nH]nc1-c1ccc(-c2n[nH]c(=O)cc2C)cc1"
## Result no

## Task Hello, is IC50 of the following compound strictly smaller than 600 nM? CC1CC(=O)NN=C1c1ccc(C2=NNC(=O)CC2C)cc1 (stereo not drawn)
## Result yes

## Task Hello, is IC50 of the following compound strictly smaller than 600 nM? "O=c1ccc(-c2ccc(-c3ccc(=O)[nH]n3)cc2)n[nH]1"
## Result yes

---
## Task Hello, is IC50 of the following compound strictly smaller than 600 nM? "O=c1ccc(-c2cccc(-c3ccc(=O)[nH]n3)c2)n[nH]1"
## Result no

## Task Hello, is IC50 of the following compound strictly smaller than 600 nM? CC1CC(=O)NN=C1c1ccc(-c2ccc(=O)[nH]n2)cc1 (stereo not drawn)
## Result yes

## Task Hello, is IC50 of the following compound strictly smaller than 600 nM? "O=C1CCC(c2ccc(C3=NNC(=O)CC3)cc2)=NN1"
## Result no
